Ref: paper PMC10384936

Measured inhibition at 100 µM, listed per entry for reference.
Molecular target: Src (Homo sapiens, UniProt P12931)
Construct: purchased Merck-Millipore
Sequence (P12931 whole entry, species assumed): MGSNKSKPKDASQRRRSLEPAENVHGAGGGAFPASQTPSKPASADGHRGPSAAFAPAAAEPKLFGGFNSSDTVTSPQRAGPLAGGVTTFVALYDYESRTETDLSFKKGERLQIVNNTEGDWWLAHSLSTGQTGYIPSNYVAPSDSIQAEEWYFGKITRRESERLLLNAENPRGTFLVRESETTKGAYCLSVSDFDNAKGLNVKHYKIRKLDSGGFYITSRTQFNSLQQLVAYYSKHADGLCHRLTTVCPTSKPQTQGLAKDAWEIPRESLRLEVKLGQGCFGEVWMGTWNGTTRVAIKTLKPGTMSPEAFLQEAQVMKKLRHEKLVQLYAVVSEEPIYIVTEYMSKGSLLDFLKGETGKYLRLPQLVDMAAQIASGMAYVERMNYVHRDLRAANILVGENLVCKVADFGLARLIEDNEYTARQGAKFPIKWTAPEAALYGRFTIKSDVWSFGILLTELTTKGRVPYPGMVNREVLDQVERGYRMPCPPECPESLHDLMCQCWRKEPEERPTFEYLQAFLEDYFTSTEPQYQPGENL
Test: Src enzymatic assay (ADP-Glo kinase assay)
Format: biochemical
Conditions: 100 µM
READOUT: inhibition at 100 µM (%)

>  <COMPOUND>
ClC(Cn1ncc2c(Nc3ccccc3)nc(C3CCCCC3)nc21)c1ccccc1 (centres unmarked)

>  <SYSTEM UNDER TEST>
Src (Homo sapiens, UniProt P12931)

>  <SCALE UNIT>
%

>  <RESULT VALUE>
95.3

$$$$
>  <COMPOUND>
Clc1cccc(Nc2nc(C3CCCC3)nc3c2cnn3CC(Cl)c2ccccc2)c1 (centres unmarked)

>  <SYSTEM UNDER TEST>
Src (Homo sapiens, UniProt P12931)

>  <SCALE UNIT>
%

>  <RESULT VALUE>
98.8

$$$$
>  <COMPOUND>
CCc1nc(Nc2ccccc2)c2cnn(CC(Cl)c3ccccc3)c2n1 (centres unmarked)

>  <SYSTEM UNDER TEST>
Src (Homo sapiens, UniProt P12931)

>  <SCALE UNIT>
%

>  <RESULT VALUE>
98.3

$$$$
>  <COMPOUND>
FC(F)(F)c1nc(Nc2ccccc2)c2cnn(CC(Cl)c3ccccc3)c2n1 (centres unmarked)

>  <SYSTEM UNDER TEST>
Src (Homo sapiens, UniProt P12931)

>  <SCALE UNIT>
%

>  <RESULT VALUE>
99.2

$$$$
>  <COMPOUND>
CC(C)Sc1nc(Nc2cccc(Cl)c2)c2cnn(CC(Cl)c3ccccc3)c2n1 (centres unmarked)

>  <SYSTEM UNDER TEST>
Src (Homo sapiens, UniProt P12931)

>  <SCALE UNIT>
%

>  <RESULT VALUE>
99.5

$$$$

###

Molecular target: Src (Homo sapiens, UniProt P12931)
Construct: purchased Merck-Millipore
Assay: Src enzymatic assay (ADP-Glo kinase assay)
Type: biochemical
Settings: 10 µM
READOUT: inhibition at 10 µM (%)

>  <COMPOUND>
CCc1nc(Nc2ccccc2)c2cnn(CC(Cl)c3ccccc3)c2n1 (stereo not drawn) [2h]

>  <RESULT VALUE>
12

$$$$
>  <COMPOUND>
ClC(Cn1ncc2c(Nc3ccccc3)nc(C3CCCCC3)nc21)c1ccccc1 (stereo not drawn) [2j]

>  <RESULT VALUE>
5

$$$$
>  <COMPOUND>
CSc1nc(Nc2ccccc2Cl)c2cnn(CC(Cl)c3ccccc3)c2n1 (stereo not drawn) [2a]

>  <RESULT VALUE>
90

$$$$
>  <COMPOUND>
Cc1nc(Nc2ccccc2)c2cnn(CC(Cl)c3ccc(Cl)cc3)c2n1 (stereo not drawn) [2q]

>  <RESULT VALUE>
48

$$$$
>  <COMPOUND>
Clc1cccc(Nc2nc(C3CCCC3)nc3c2cnn3CC(Cl)c2ccccc2)c1 (stereo not drawn) [2i]

>  <RESULT VALUE>
56

$$$$
>  <COMPOUND>
Oc1cc(Nc2nc(SCCN3CCOCC3)nc3c2cnn3CC(Cl)c2ccccc2)c(F)cc1F (stereo not drawn) [2g]

>  <RESULT VALUE>
93.6

$$$$
>  <COMPOUND>
ClC(Cn1ncc2c(Nc3ccccc3)nc(-c3ccccc3)nc21)c1ccccc1 (stereo not drawn) [2n]

>  <RESULT VALUE>
13

$$$$
>  <COMPOUND>
Cl.Oc1cc(Nc2nc(SCCN3CCOCC3)nc3c2cnn3CC(Cl)c2ccccc2)ccc1F (stereo not drawn) [2f]

>  <RESULT VALUE>
79

$$$$
>  <COMPOUND>
FC(F)(F)c1nc(Nc2ccccc2)c2cnn(CC(Cl)c3ccccc3)c2n1 (stereo not drawn) [2k]

>  <RESULT VALUE>
50.3

$$$$
